Attribution: PubChem BioAssay (NCI)

TGI by entry:
System: UO-31 renal
Assay: NCI tumour cell line growth inhibition, 48 h
Write down the numeric answer in µM and omit the unit.

Requested read-out: TGI. Entry: CCOC(=O)c1c(NC(=O)c2cccc(C(F)(F)F)c2)sc2c(CN(C)C)c(O)ccc12 14.4

Requested read-out: TGI. Entry: COc1ccc(-n2c(C)cc(-c3ccccc3)c2C)cc1 95.8

Requested read-out: TGI. Entry: CCN1CCC(O)(/C=C/c2ccc(C)cc2)C(C(=O)/C=C/c2ccc(C)cc2)C1 (centres undefined) 12.4

Requested read-out: TGI. Entry: CCOC(=O)/C=C(/C)Sc1cc(O)c2ccccc2c1O 11.1

Requested read-out: TGI. Entry: CN(CCO)c1ccc(N2Cc3ccccc3OC3=C2C(=O)c2c(O)ccc(O)c2C3=O)cn1 0.304

Requested read-out: TGI. Entry: Cc1cc(C)c(C[C@H]2COC(=O)[C@]2(O)Cc2c(C)cc(C)cc2C)c(C)c1 38.4

Requested read-out: TGI. Entry: Cc1nc(-[n+]2nc(-c3ccncc3)nn2-c2ccccc2)sc1C 50.4

Requested read-out: TGI. Entry: CC(O)CCCCC(O)CCC[C@H](O)[C@H]1CCC([C@H]2CCC([C@@H](O)CCCCCCCCCCCCC3=C[C@H](C)OC3=O)O2)O1 (some centres undefined) 19

Requested read-out: TGI. Entry: Cc1cc(C)c(NC(=O)c2sc3nc4c(cc3c2N)CN(Cc2ccccc2)CC4)c(C)c1 93.9
